- protocol_summary: Cytotoxicity on normal mesenchymal stem cells
- Assay type: cell-based
- test_parameters: human bone marrow-derived mesenchymal stem cells; mean ± SEM; read-out: Cytotoxicity (IC50) MSCs
pIC50: −log10 of the molar value.
measurement_kind: pIC50

**Query** What does the data say about its pIC50? Entry: O=C(CN1C(=O)Cc2ccccc21)N/N=C1\C(=O)Nc2ccc(Cl)cc21
**Result** < 4.52

**Query** One more compound: O=C(CN1C(=O)Cc2cc(F)ccc21)N/N=C/c1ccc(Cl)cc1
**Result** < 4.52

**Query** What would you report for O=C(CN1C(=O)Cc2cc(F)ccc21)N/N=C1\C(=O)Nc2ccccc21 ?
**Result** < 4.52

**Query** Param item: O=C(CN1C(=O)Cc2cc(F)ccc21)N/N=C1\C(=O)Nc2ccc(Cl)cc21
**Result** < 4.52

**Query** And for COc1ccc(/C=N/NC(=O)CN2C(=O)Cc3cc(F)ccc32)c(O)c1 ?
**Result** 4.89

**Query** Also Cc1ccc2c(c1)/C(=N/NC(=O)CN1C(=O)Cc3cc(F)ccc31)C(=O)N2 ?
**Result** < 4.52

**Query** Input O=C(CN1C(=O)Cc2cc(F)ccc21)N/N=C/c1ccccc1Cl
**Result** < 4.52

**Query** # repeat for C=CCc1cccc(/C=N/NC(=O)CN2CCN(Cc3ccccc3)CC2)c1O [PAC-1, reference compound]
**Result** 5.04

**Query** // next record O=C(CN1C(=O)Cc2ccccc21)N/N=C/c1ccccc1
**Result** < 4.52

**Query** Next compound: O=C(CN1C(=O)Cc2ccccc21)N/N=C1\C(=O)Nc2ccccc21
**Result** < 4.52

**Query** How about this compound: O=C(CN1C(=O)Cc2ccccc21)N/N=C/c1cccc(Cl)c1
**Result** < 4.52

**Query** Repeat for the following compound: O=C(CN1C(=O)Cc2cc(F)ccc21)N/N=C/c1cccc(Cl)c1
**Result** < 4.52

**Query** Item: O=C(CN1C(=O)Cc2cc(F)ccc21)N/N=C/c1ccccc1
**Result** < 4.52

**Query** Similarly, O=C(CN1C(=O)Cc2cc(F)ccc21)N/N=C/c1ccccc1O ?
**Result** 4.68

**Query** Then what about the compound C=CCc1cccc(/C=N/NC(=O)CN2C(=O)Cc3cc(F)ccc32)c1O ?
**Result** 4.80

**Query** Could you do the same for O=C(CN1C(=O)Cc2ccccc21)N/N=C/c1ccccc1Cl , please?
**Result** < 4.52

**Query** Same question for Cc1ccc2c(c1)/C(=N/NC(=O)CN1C(=O)Cc3ccccc31)C(=O)N2 please.
**Result** < 4.52

**Query** COc1ccc(/C=N/NC(=O)CN2C(=O)Cc3ccccc32)c(O)c1 , same question.
**Result** 4.81

----------
Please go through the items and note down their melting point.

**Query** Sample C=CCc1cccc(/C=N/NC(=O)CN2C(=O)Cc3cc(F)ccc32)c1O — what was its melting point?
**Result** 194 to 195 °C

**Query** Same question, O=C(CN1C(=O)Cc2cc(F)ccc21)N/N=C1\C(=O)Nc2ccc(Cl)cc21 this time
**Result** 221 to 222 °C

**Query** Try this compound too: Cc1ccc2c(c1)/C(=N/NC(=O)CN1C(=O)Cc3cc(F)ccc31)C(=O)N2
**Result** 217 to 218 °C

**Query** Another compound to look at: O=C(CN1C(=O)Cc2cc(F)ccc21)N/N=C1\C(=O)Nc2ccccc21
**Result** 215 to 216 °C
